Data origin: ChEMBL document CHEMBL5113443

I'd be grateful if you could share measured Kq for these entries.
- SUBJECT_OF_TEST: DNA repair protein RAD51 homolog 1 (Homo sapiens) (UniProt Q06609)
- TEST_DETAILS: Binding affinity to RAD51 (158 to 180 residues) (unknown origin) assessed as quenching rate constant by fluorescence spectroscopy
Where a SMILES comes first, the peptide text is derived from it. The star is where a group is joined. Nicotinoyl = O=C(c1cccnc1)*; X2 = O=C(c1cccnc1C(F)(F)F)*

Provide one value: measured Kq of CC(C)C[C@H](NC(=O)[C@H](Cc1ccc(O)cc1)NC(=O)c1cccnc1)C(=O)N[C@@H](CCC(N)=O)C(=O)N[C@@H](CC(N)=O)C(=O)N[C@H](C(=O)N[C@@H](Cc1ccccc1)C(=O)N[C@@H](CCCCN)C(=O)N[C@H](C(=O)N[C@@H](CO)C(=O)N[C@@H](CCCCN)C(=O)N[C@@H](CCCNC(=N)N)C(=O)N[C@@H](CCC(N)=O)C(=O)N[C@@H](CO)C(=O)N[C@@H](Cc1ccccc1)C(=O)N[C@@H](C)C(=O)N1CCC[C@H]1C(N)=O)C(C)C)[C@@H](C)O (Nicotinoyl-YLQNTFKVSKRQSFAP-NH2)
0.96 10^12/M

Provide one value: measured Kq of CC(C)C[C@H](NC(=O)[C@H](Cc1ccc(O)cc1)NC(=O)c1cccnc1C(F)(F)F)C(=O)N[C@@H](CCC(N)=O)C(=O)N[C@@H](CC(N)=O)C(=O)N[C@H](C(=O)N[C@@H](Cc1ccccc1)C(=O)N[C@@H](CCCCN)C(=O)N[C@H](C(=O)N[C@@H](CO)C(=O)N[C@@H](CCCCN)C(=O)N[C@@H](CCCNC(=N)N)C(=O)N[C@@H](CCC(N)=O)C(=O)N[C@@H](CO)C(=O)N[C@@H](Cc1ccccc1)C(=O)N[C@@H](C)C(=O)N1CCC[C@H]1C(N)=O)C(C)C)[C@@H](C)O (X2-YLQNTFKVSKRQSFAP-NH2)
0.61 10^12/M

Provide one value: measured Kq of CC(C)C[C@H](NC(=O)[C@@H](N)Cc1ccc(O)cc1)C(=O)N[C@@H](CCC(N)=O)C(=O)N[C@@H](CC(N)=O)C(=O)N[C@H](C(=O)N[C@@H](Cc1ccccc1)C(=O)N[C@@H](CCCCN)C(=O)N[C@H](C(=O)N[C@@H](CO)C(=O)N[C@@H](CCCCN)C(=O)N[C@@H](CCCNC(=N)N)C(=O)N[C@@H](CCC(N)=O)C(=O)N[C@@H](CO)C(=O)N[C@@H](Cc1ccccc1)C(=O)N[C@@H](C)C(=O)N1CCC[C@H]1C(=O)O)C(C)C)[C@@H](C)O (H-YLQNTFKVSKRQSFAP-OH)
1.13 10^12/M

---

- SUBJECT_OF_TEST: UniProtKB Q06609
- Sequence (whole entry): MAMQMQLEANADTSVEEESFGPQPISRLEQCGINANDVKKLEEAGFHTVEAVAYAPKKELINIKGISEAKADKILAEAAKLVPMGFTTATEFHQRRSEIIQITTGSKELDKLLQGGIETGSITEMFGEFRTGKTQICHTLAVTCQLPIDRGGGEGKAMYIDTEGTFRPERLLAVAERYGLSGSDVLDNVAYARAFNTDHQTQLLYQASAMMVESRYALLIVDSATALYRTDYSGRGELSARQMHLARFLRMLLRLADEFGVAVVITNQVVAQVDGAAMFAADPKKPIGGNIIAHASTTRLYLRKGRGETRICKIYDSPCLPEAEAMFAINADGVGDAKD
- TEST_DETAILS: Binding affinity to RAD51 (158 to 180 residues) (unknown origin) assessed as alpha-helical content at 15 uM by circular dichroism spectroscopy (reference value: 26.9%)
Where a SMILES comes first, the peptide text is derived from it. The star is where a group is joined. X6 = O=C(c1cccnc1S)*
MEASURED_ATTRIBUTE: Activity (%)
Note: unit % is implicit; provide only the numeric part.

Provide one value: measured Activity of CC(C)C[C@H](NC(=O)[C@@H](N)Cc1ccc(O)cc1)C(=O)N[C@@H](CCC(N)=O)C(=O)N[C@@H](CC(N)=O)C(=O)N[C@H](C(=O)N[C@@H](Cc1ccccc1)C(=O)N[C@@H](CCCCN)C(=O)N[C@H](C(=O)N[C@@H](CO)C(=O)N[C@@H](CCCCN)C(=O)N[C@@H](CCCNC(=N)N)C(=O)N[C@@H](CCC(N)=O)C(=O)N[C@@H](CO)C(=O)N[C@@H](Cc1ccccc1)C(=O)N[C@@H](C)C(=O)N1CCC[C@H]1C(=O)O)C(C)C)[C@@H](C)O (H-YLQNTFKVSKRQSFAP-OH)
37.1

Provide one value: measured Activity of CC(C)C[C@H](NC(=O)[C@H](Cc1ccc(O)cc1)NC(=O)c1cccnc1S)C(=O)N[C@@H](CCC(N)=O)C(=O)N[C@@H](CC(N)=O)C(=O)N[C@H](C(=O)N[C@@H](Cc1ccccc1)C(=O)N[C@@H](CCCCN)C(=O)N[C@H](C(=O)N[C@@H](CO)C(=O)N[C@@H](CCCCN)C(=O)N[C@@H](CCCNC(=N)N)C(=O)N[C@@H](CCC(N)=O)C(=O)N[C@@H](CO)C(=O)N[C@@H](Cc1ccccc1)C(=O)N[C@@H](C)C(=O)N1CCC[C@H]1C(N)=O)C(C)C)[C@@H](C)O (X6-YLQNTFKVSKRQSFAP-NH2)
36.2

---

- SUBJECT_OF_TEST: DNA repair protein RAD51 homolog 1 (Homo sapiens) (UniProt Q06609)
- TEST_DETAILS: Binding affinity to RAD51 (158 to 180 residues) (unknown origin) assessed as beta-turn content at 15 uM by circular dichroism spectroscopy (reference value: 16.2%)
Where a SMILES comes first, the peptide text is derived from it. The star is where a group is joined. X2 = O=C(c1cccnc1C(F)(F)F)*
MEASURED_ATTRIBUTE: Activity (%)
Note: unit % is implicit; provide only the numeric part.

Return reported Activity for target or system DNA repair protein RAD51 homolog 1 (Homo sapiens) (UniProt Q06609), item CC(C)C[C@H](NC(=O)[C@H](Cc1ccc(O)cc1)NC(=O)c1cccnc1C(F)(F)F)C(=O)N[C@@H](CCC(N)=O)C(=O)N[C@@H](CC(N)=O)C(=O)N[C@H](C(=O)N[C@@H](Cc1ccccc1)C(=O)N[C@@H](CCCCN)C(=O)N[C@H](C(=O)N[C@@H](CO)C(=O)N[C@@H](CCCCN)C(=O)N[C@@H](CCCNC(=N)N)C(=O)N[C@@H](CCC(N)=O)C(=O)N[C@@H](CO)C(=O)N[C@@H](Cc1ccccc1)C(=O)N[C@@H](C)C(=O)N1CCC[C@H]1C(N)=O)C(C)C)[C@@H](C)O (X2-YLQNTFKVSKRQSFAP-NH2) .
11.6

---

- SUBJECT_OF_TEST: UniProtKB Q06609
- Sequence (whole entry): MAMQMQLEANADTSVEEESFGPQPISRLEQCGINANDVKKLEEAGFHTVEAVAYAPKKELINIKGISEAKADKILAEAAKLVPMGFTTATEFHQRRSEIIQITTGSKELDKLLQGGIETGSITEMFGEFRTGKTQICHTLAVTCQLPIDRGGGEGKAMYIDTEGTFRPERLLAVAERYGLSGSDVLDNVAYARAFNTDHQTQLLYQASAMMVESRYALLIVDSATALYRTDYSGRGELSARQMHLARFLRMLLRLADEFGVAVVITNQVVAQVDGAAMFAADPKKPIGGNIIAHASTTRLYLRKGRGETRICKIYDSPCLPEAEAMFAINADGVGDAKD
- TEST_DETAILS: Binding affinity to RAD51 (158 to 180 residues) (unknown origin) assessed as beta-turn content at 15 uM by circular dichroism spectroscopy (reference value: 16.2%)
Where a SMILES comes first, the peptide text is derived from it. The star is where a group is joined. Nicotinoyl(6-CF3) = O=C(c1ccc(C(F)(F)F)nc1)*; Nicotinoyl = O=C(c1cccnc1)*
I'd be grateful if you could share measured Activity for these entries.
Note: unit % is implicit; provide only the numeric part.

Provide one value: measured Activity of CC(C)C[C@H](NC(=O)[C@H](Cc1ccc(O)cc1)NC(=O)c1cccnc1)C(=O)N[C@@H](CCC(N)=O)C(=O)N[C@@H](CC(N)=O)C(=O)N[C@H](C(=O)N[C@@H](Cc1ccccc1)C(=O)N[C@@H](CCCCN)C(=O)N[C@H](C(=O)N[C@@H](CO)C(=O)N[C@@H](CCCCN)C(=O)N[C@@H](CCCNC(=N)N)C(=O)N[C@@H](CCC(N)=O)C(=O)N[C@@H](CO)C(=O)N[C@@H](Cc1ccccc1)C(=O)N[C@@H](C)C(=O)N1CCC[C@H]1C(N)=O)C(C)C)[C@@H](C)O (Nicotinoyl-YLQNTFKVSKRQSFAP-NH2)
20.1

Provide one value: measured Activity of CC(C)C[C@H](NC(=O)[C@H](Cc1ccc(O)cc1)NC(=O)c1ccc(C(F)(F)F)nc1)C(=O)N[C@@H](CCC(N)=O)C(=O)N[C@@H](CC(N)=O)C(=O)N[C@H](C(=O)N[C@@H](Cc1ccccc1)C(=O)N[C@@H](CCCCN)C(=O)N[C@H](C(=O)N[C@@H](CO)C(=O)N[C@@H](CCCCN)C(=O)N[C@@H](CCCNC(=N)N)C(=O)N[C@@H](CCC(N)=O)C(=O)N[C@@H](CO)C(=O)N[C@@H](Cc1ccccc1)C(=O)N[C@@H](C)C(=O)N1CCC[C@H]1C(N)=O)C(C)C)[C@@H](C)O ({Nicotinoyl(6-CF3)}-YLQNTFKVSKRQSFAP-NH2)
18.4
